Items are presented alongside their recorded EC50.
# TARGET_SYSTEM: S1P5 (Homo sapiens)
# Sequence (Q9H228 whole entry, species assumed): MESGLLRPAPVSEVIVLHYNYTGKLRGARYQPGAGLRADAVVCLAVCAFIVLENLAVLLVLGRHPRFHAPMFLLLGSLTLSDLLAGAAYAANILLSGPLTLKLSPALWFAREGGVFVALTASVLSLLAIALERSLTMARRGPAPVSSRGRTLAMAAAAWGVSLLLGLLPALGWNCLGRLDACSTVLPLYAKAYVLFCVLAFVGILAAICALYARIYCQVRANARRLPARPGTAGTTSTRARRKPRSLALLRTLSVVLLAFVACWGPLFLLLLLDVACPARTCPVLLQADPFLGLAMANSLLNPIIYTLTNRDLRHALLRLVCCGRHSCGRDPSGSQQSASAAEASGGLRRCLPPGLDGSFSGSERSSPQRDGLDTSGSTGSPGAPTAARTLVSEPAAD
# PROTOCOL_DETAILS: Subtype selectivity study, method of Experimental Example 1
# Format: cell-based
# Description: Experimental method: CHO-K1/Ga15/EDG1 cells stably expressing EDG1 receptor were cultured in a 10 cm culture dish in a 37° C./5% CO2incubator, and digested when the confluence rate reached 80%-85%. […] Positive agonist working solution was added, and RFU values were detected and recorded. […] Data were collected and analyzed using Excel and GraphPad Prism 6 software programs. […]

[
  {
    "COMPOUND": "CC(C)Oc1ccc(-c2nc(-c3ccc(CN4CC(C(=O)O)C4)c4ccccc34)no2)cc1C#N.Cl",
    "TARGET_SYSTEM": "S1P5 (Homo sapiens)",
    "EC50 (nM)": 120
  },
  {
    "COMPOUND": "CCc1cc(/C(C)=N/OCc2ccc(C3CCCCC3)c(C(F)(F)F)c2)ccc1CN1CC(C(=O)O)C1 [Siponmod, reference compound]",
    "TARGET_SYSTEM": "S1P5 (Homo sapiens)",
    "EC50 (nM)": 0.98
  },
  {
    "COMPOUND": "CC(C)Oc1ccc(-c2nc(-c3cccc4c3CC[C@@H]4NCCO)no2)cc1C#N",
    "TARGET_SYSTEM": "S1P5 (Homo sapiens)",
    "EC50 (nM)": 10.7
  }
]
